Cited source: patent EP4350345A2

molecular target: monoclonal antibody 21-4-3; assay: SPR, 21-4-3 captured via anti-mouse IgG, 500 nM
Property name: binding as % of Reference Sequence (=100%)
Return type: number; implicit unit %.

Binder	Recorded value
Nanobody or Nanobody construct of SEQ ID NO: 71 (VHH) VHH: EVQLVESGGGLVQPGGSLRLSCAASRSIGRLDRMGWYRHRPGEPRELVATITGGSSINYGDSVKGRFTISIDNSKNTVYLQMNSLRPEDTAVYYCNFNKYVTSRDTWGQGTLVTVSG	44

Let us examine a further case.
Qu. Would you mind telling me what binding as % of Reference Sequence (=100%) value was observed for Nanobody or Nanobody construct of SEQ ID NO: 69 (VHH) VHH: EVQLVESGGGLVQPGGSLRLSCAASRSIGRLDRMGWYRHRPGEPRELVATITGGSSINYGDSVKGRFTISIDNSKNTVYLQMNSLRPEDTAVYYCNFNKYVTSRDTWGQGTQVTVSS ?
Ans. 106
